These entries and their values trace back to ChEMBL document CHEMBL5329165.

assay: Cytotoxicity against human HepG2 cells assessed as reduction in cell viability by alamar blue assay; format: toxicity, cell-based
# reported CC50; entries follow
State just the number; it will be interpreted in µM.

Solved cases (10 shown):
>>> df
                               smiles_entry  reported_metric  uom  recorded_number
0     Nc1ccc(C(=O)Nc2nc3ccccc3c3ccccc23)cc1             CC50   µM             32.1
1  Cc1nc2c3ccccc3c3ccccc3n2c1C(=O)NCc1cn(-c2cccc(C(F)(F)F)c2)nn1             CC50   µM             82.3
2     Nc1cccc(C(=O)Nc2nc3ccccc3c3ccccc23)c1             CC50   µM             56.9
3           C#CCCC(=O)Nc1nc2ccccc2c2ccccc12             CC50   µM             22.6
4  Cc1nc2c3ccccc3c3ccccc3n2c1C(=O)NCc1cn(-c2ccc(C(F)(F)F)cc2)nn1             CC50   µM             84.4
5  O=C(Cc1c[nH]c2ccccc12)Nc1nc2ccccc2c2ccccc12             CC50   µM             32.1
6                     Nc1nc2ccccc2c2ccccc12             CC50   µM             30.5
7           CCCCCC(=O)Nc1nc2ccccc2c2ccccc12             CC50   µM             79.5
8  O=C(CCCc1c[nH]c2ccccc12)Nc1nc2ccccc2c2ccccc12             CC50   µM               30
9  Cc1nc2c3ccccc3c3ccccc3n2c1C(=O)NCc1cn(-c2cccc([N+](=O)[O-])c2)nn1             CC50   µM             71.9

Enquiry: For O=C(Nc1nc2ccccc2c2ccccc12)c1cnccn1 , what is its reported CC50?
Return: 53

Enquiry: For Cc1cc(C)cc(-n2cc(CNC(=O)c3c(C)nc4c5ccccc5c5ccccc5n34)nn2)c1 , what is its reported CC50?
Return: 90.7

* * *

# reported MIC; entries follow
system: Mycobacterium tuberculosis; assay: Antimycobacterial activity against non-replicating Mycobacterium tuberculosis H37Rv ATCC 27294 incubated for 10 days under anaerobic condition followed by treatment under aerobic condition and measured on day 11 by luminescence based low oxygen recovery assay; format: functional; details: H37Rv ATCC 27294, 264 h, time 11 day

In [3]: df
Out[3]:
                               smiles_entry    result
0  CCc1ccc(-n2cc(CNC(=O)c3c(C)nc4c5ccccc5c5ccccc5n34)nn2)cc1  > 217 µM
1  Cc1nc2c3ccccc3c3ccccc3n2c1C(=O)NCc1cn(-c2ccc(Cl)c(Cl)c2[N+](=O)[O-])nn1  > 183 µM

Enquiry: # value lookup — system Mycobacterium tuberculosis, readout MIC, item O=C(Nc1nc2ccccc2c2ccccc12)c1ccccc1I
Return: > 236 µM

* * *

test system: Mycobacterium tuberculosis; experiment: Antimycobacterial activity against non-replicating Mycobacterium tuberculosis H37Rv ATCC 27294 incubated for 10 days under anaerobic condition followed by treatment under aerobic condition and measured on day 11 by luminescence based low oxygen recovery assay; format: functional; conditions: H37Rv ATCC 27294, 264 h, time 11 day
Reported metric: MIC

Solved cases (2 shown):
>>> print(df.to_string())
                               smiles_entry                assay_target  reported_metric    result
0  Cc1nc2c3ccccc3c3ccccc3n2c1C(=O)NCc1cn(-c2ccccc2Cl)nn1  Mycobacterium tuberculosis              MIC  > 214 µM
1   O=C(Cc1ccc(Br)cc1)Nc1nc2ccccc2c2ccccc12  Mycobacterium tuberculosis              MIC  > 256 µM

Enquiry: # value lookup — system Mycobacterium tuberculosis, readout MIC, item O=C(Nc1nc2ccccc2c2ccccc12)c1cccc(Cl)c1
Return: > 300 µM
